Task for the reader: assign each of the following compounds its reported growth inhibition.
Test: NCI Yeast Anticancer Drug Screen. Data for the wt2 strain (AID 169);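 also: 0% = growth of vehicle-treated yeast cultures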
Conditions: S. cerevisiae wt2 strain growth inhibition; at 11.0 µM; hits give high values
This is part of a sample that, as a whole, favours compounds with a hit. Of some 79,000 tested, about 15% had one in any assay.
Give bare numbers, in %.

## Task Could you share which growth inhibition value was measured for COc1ccc2cc(C(C)C(=O)N3CCOC3=O)ccc2c1 (configuration not stated) ?
## Result -34

## Task Could you share which growth inhibition value was measured for "OC(c1ccccc1)(c1ccccc1)c1nccc2ccccc12" ?
## Result -31

## Task Could you share which growth inhibition value was measured for "O=C(O)CNC(c1ccccc1)(c1ccccc1)c1ccccc1" ?
## Result -9

## Task Could you share which growth inhibition value was measured for "COC(=O)c1cnc(Cl)c([N+](=O)[O-])c1" ?
## Result 88

## Task Could you share which growth inhibition value was measured for "O=c1c2ccccc2nc(-c2cccc([N+](=O)[O-])c2)n1O" ?
## Result 87

List reported growth inhibition for each of these compounds:
1. Cc1ccc(S(=O)(=O)NC(=O)C2C(=O)CC3(CCCCC3)CC2=O)cc1
2. O=[N+]([O-])c1ccc(/C=C\c2ccc3c(c2)OCO3)c([N+](=O)[O-])c1
3. CC(C)(C)c1ccc2c(c1)C(=O)c1ccccc1C2=O
4. O=S(=O)(c1cccc(C(F)(F)F)c1)N1c2ccccc2-n2cccc2C1c1cccnc1 (configuration not stated)

## Result
[20, -1, 10, 60]

List reported growth inhibition for each of these compounds:
1. CCN(CC)CCNc1ccc2nc(C)n3c4ccc(OC)cc4c(=O)c1c23
2. O=C(CCSC1=NCCCN1)c1ccc(F)cc1
3. Cc1cc(C)c(S(=O)(=O)c2ccc(Cl)cc2)c(C)c1
4. CCCCCCCCN1COCC(COc2ccccc2C)OC1 (configuration not stated)
5. C/C1=C/C2OC(=O)C3(C)C2C(CC2(C)OC1=CC2=O)OC3(O)C(C)C (configuration not stated)
6. N#CC1OB(O)c2ccccc21 (configuration not stated)

## Result
1: -24; 2: -5; 3: -8; 4: 0; 5: 27; 6: -1

###

Experiment: NCI Yeast Anticancer Drug Screen. Data for the sgs1 mgt1 strain (AID 161);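 also: 0% = growth of cultures given vehicle only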
Details: S. cerevisiae sgs1 mgt1 strain, at 5.0 µM (retest, dose inferred, filed as 0.5), hits give high values
This is part of a sample that, as a whole, favours compounds with a hit. Of some 79,000 tested, about 15% had one in any assay.
endpoint: growth inhibition (%)
Answers are plain numbers, in %.

Please review the following examples before continuing.
## Task Could you share which growth inhibition value was measured for "CCOc1ccc2nc3ccccc3c(N)c2c1" ?
## Result 32

## Task Could you share which growth inhibition value was measured for "Cc1cc(C)c(S(=O)(=O)c2ccc(Cl)cc2)c(C)c1" ?
## Result -3

## Task Could you share which growth inhibition value was measured for CCCC/C=C1\CCC(CN2CCCC2)C1=O (stereo not drawn) ?
## Result 18

## Task Could you share which growth inhibition value was measured for CC1(c2ccccc2)O[C@@H]2C[C@H]3[C@@H]4CCC5=CC(=O)C=C[C@]5(C)[C@@]4(F)[C@@H](O)C[C@]3(C)[C@]2(C(=O)CO)O1 (stereo partly drawn) ?
## Result 2

List reported growth inhibition for each of these molecules:
1. O=C(CCCN1CCC(Nc2ccc(F)cc2)(c2nnnn2C2CCCCC2)CC1)c1ccc(F)cc1
2. COc1ccc(C(C)c2cc3c(cc2OCC(C)=O)OCO3)cc1 (stereo not drawn)
3. Cc1cccc(C)c1NC(=O)CCC(=O)C(C)C(=O)c1ccc(O)cc1 (stereo not drawn)

## Result
[-4, -4, 0]

List reported growth inhibition for each of these molecules:
1. O=C(CN(c1ccccc1)c1ccccc1)n1nnc2ccccc21
2. Cc1ccc(Nc2n[nH]c(=S)s2)c(C)c1
3. CC(C)Cc1ncc(CCCN=C(N)N)[nH]c1=O
4. C/C(=N\Sc1ccccc1)c1ccccc1O
5. Nc1ccc(S(=O)(=O)Nc2nc3c(c(=O)[nH]2)CCCC3)cc1

## Result
1. -15
2. -6
3. 1
4. -63
5. 44

## Task Could you share which growth inhibition value was measured for "Cc1cccc2c(NCCCN(C)C)c3c([N+](=O)[O-])ccc(C)c3nc12" ?
## Result 12

###

Test: NCI Yeast Anticancer Drug Screen. Data for the mec2-1 strain (AID 157)
Details: S. cerevisiae mec2-1 strain, at 11.0 µM, hits give high values
About 79,000 compounds went through this panel and 15% of them were active in at least one assay; those are over-represented in the sample as a whole.
Task for the reader: assign each of the following compounds its reported growth inhibition.
Numbers only, in %.

List reported growth inhibition for each of these compounds:
1. CCN1CCC(O)(c2ccc(Oc3ccc(C)cc3)cc2)C(C(=O)c2ccc(Oc3ccc(C)cc3)cc2)C1 (configuration not stated)
2. CC1(C)CC(=O)C(C=NC(=S)C(N)=S)=C(O)C1
3. CCOP(=O)(OCC)/C(C#N)=C\c1cccc2ccccc12
4. O=c1cccccc1[O-].O=c1cccccc1[O-].O=c1cccccc1[O-].[Eu+3]
5. CC(C)C(c1ccccc1)c1ccccc1
6. CC(C)(Br)C(=O)/C=C/c1ccccc1
7. O=c1c2ccccc2nc(-c2ccc(Cl)cc2)n1O

## Result
1: 98; 2: -41; 3: 15; 4: 16; 5: -10; 6: 17; 7: 83

List reported growth inhibition for each of these compounds:
1. CC1CN(/N=C\c2ccc([N+](=O)[O-])o2)C(=O)O1 (configuration not stated)
2. CCOC(=O)Nc1ccc(C)c(NC(=O)OCC)c1

## Result
1: 6; 2: 11

List reported growth inhibition for each of these compounds:
1. Cc1ccnc2c(O)cccc12
2. COc1cc(OC)c(CSCC(NC(=O)OCC2c3ccccc3-c3ccccc32)C(=O)O)c(OC)c1 (configuration not stated)
3. O=C(CN(c1ccccc1)c1ccccc1)n1nnc2ccccc21

## Result
1: 100; 2: 55; 3: 13

###

Assay: NCI Yeast Anticancer Drug Screen. Data for the mlh1 rad18 strain (AID 175)
Details: S. cerevisiae mlh1 rad18 strain growth inhibition; at 50.0 µM (retest, dose inferred, filed as 5.0)
This is part of a sample that, as a whole, favours compounds with a hit. Of some 79,000 tested, about 15% had one in any assay. Calls of active or inactive are those of the source. Cut-off read from the data, not from the text of the source: active = growth inhibition above about 70%; inactive = the rest.
Hi there, use one of these labels in your reply, thanks! T = active, F = inactive

Some solved cases for reference:
## Task Kindly provide the recorded test outcome for the following molecule: "NCCOc1ccc(/C(=C(/Cl)c2ccccc2)c2ccccc2)cc1"
## Result T

## Task Kindly provide the recorded test outcome for the following molecule: "COc1ccc(C(=O)/C=C\c2ccc(Cl)c(Cl)c2)cc1"
## Result T

Further cases:
## Task Kindly provide the recorded test outcome for the following molecule: "CC(=O)CCC1=C(C)C(=O)C(=O)C(C)=C1O"
## Result F

## Task Kindly provide the recorded test outcome for the following molecule: "CCN(CC)CCNc1ccc2ncn3c4ccc(O)cc4c(=O)c1c23"
## Result F

## Task Kindly provide the recorded test outcome for the following molecule: "CC(C)NCCCNc1c2ccccc2nc2cccc([N+](=O)[O-])c12"
## Result T

###

Task for the reader: assign each of the following compounds its reported growth inhibition.
Assay: NCI Yeast Anticancer Drug Screen. Data for the sgs1 mgt1 strain (AID 161);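 also: 0% = growth of cultures given vehicle only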
Conditions: S. cerevisiae sgs1 mgt1 strain, at 50.0 µM (retest, dose inferred, filed as 5.0), hits give high values
This is part of a sample that, as a whole, favours compounds with a hit. Of some 79,000 tested, about 15% had one in any assay.
Give bare numbers, in %.

Please review the following examples before continuing.
## Task Could you share which growth inhibition value was measured for "COc1ccc2nc3cccc([N+](=O)[O-])c3c(NCCNCCO)c2c1" ?
## Result 94

## Task Could you share which growth inhibition value was measured for "CC(C)(CN1CCCCC1)C(=O)/C=C/c1c(Cl)cccc1Cl" ?
## Result 98

List reported growth inhibition for each of these compounds:
1. CCS(=O)(=O)Nc1ccc(Nc2c3ccccc3nc3ccccc23)c(OC)c1
2. N#CCC(=O)N/N=C(\c1ccccc1)C(c1ccccc1)C1(O)C(=O)Nc2c(Cl)ccc(Cl)c21 (stereo not drawn)
3. COC1=CCC23C(=O)C=CC(=O)C2(C1)C(=O)c1ccccc1C3=O (stereo not drawn)

## Result
1: 98; 2: 39; 3: 76

List reported growth inhibition for each of these compounds:
1. CCC(/C=C/c1ccccc1)=N\Nc1ccc(Cl)cc1
2. O/N=c1/ccn(O)c2ccccc12
3. CC(C)S(=O)(=O)/C=C\S(=O)(=O)C(C)C

## Result
[81, 95, 76]

List reported growth inhibition for each of these compounds:
1. NCCOc1ccc(/C(=C(/Cl)c2ccccc2)c2ccccc2)cc1
2. CCCC/C=C1\CCC(CN2CCCC2)C1=O (stereo not drawn)
3. COc1cc(NCCCCNCC(C)(C)C)c2ncccc2c1

## Result
98
51
28

List reported growth inhibition for each of these compounds:
1. CC(=O)/C=C/c1cccc([N+](=O)[O-])c1
2. CN(C)CC1=Nc2cccc3cccc(c23)N1

## Result
[85, 41]
